Overview of recorded activity for various compounds
Biological target: Tumor necrosis factor receptor superfamily member 10B (Homo sapiens) (UniProt O14763)
Sequence (O14763 whole entry, looked up): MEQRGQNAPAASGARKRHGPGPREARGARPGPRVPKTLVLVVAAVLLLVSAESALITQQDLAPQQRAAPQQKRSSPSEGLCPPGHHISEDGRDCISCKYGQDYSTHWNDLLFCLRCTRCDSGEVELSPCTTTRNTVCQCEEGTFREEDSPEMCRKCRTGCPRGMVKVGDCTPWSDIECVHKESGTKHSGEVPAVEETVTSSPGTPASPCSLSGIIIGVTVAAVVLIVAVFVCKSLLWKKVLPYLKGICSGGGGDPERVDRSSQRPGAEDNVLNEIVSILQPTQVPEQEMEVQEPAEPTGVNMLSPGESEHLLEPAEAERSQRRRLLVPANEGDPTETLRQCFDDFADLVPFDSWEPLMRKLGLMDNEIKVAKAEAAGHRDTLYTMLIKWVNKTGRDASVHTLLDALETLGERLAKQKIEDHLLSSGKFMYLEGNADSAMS
Assay: caspase-8 TRAIL sensitization, hit retest, confirmation, cell-based, NB7+caspase-8, with/without TRAIL, luminescence panel (AID 651596)
Conditions: NB7 neuroblastoma + caspase-8, TRAIL sensitization, luminescence viability, with TRAIL, mean of runs, at 10 µM, stronger effect = higher value
Quick note: unit goes after the number.

// solved cases for activity follow
[[record]]
compound = "Cc1nc(Cl)c2oc3ccccc3c2n1"
observed_measurement = "84%"

[[record]]
compound = "O=C(Nc1ccccn1)c1sc2cccc(F)c2c1Cl"
observed_measurement = "82.7%"

[[record]]
compound = "O=C(/C=C/c1ccc2c(c1)OCO2)Nc1cccnc1"
observed_measurement = "71.1%"

[[record]]
compound = "O=C(/C=C/Nc1ccc(F)cc1)c1cccs1"
observed_measurement = "69.7%"

[[record]]
compound = "O=C(Nc1ccc(Cl)cn1)c1ccc2c(Cl)c3c(nc2c1)CCC3"
observed_measurement = "56.8%"


Turning now to a further record.
# return recorded activity for entry Cc1cc2ncc(-c3ncc(C(F)(F)F)cc3Cl)cn2n1
45.7%

meta.source: PubChem BioAssay
